For each entry below, report its PBM E-score value.
molecular target: Stb4 (UniProt P50104); assay: PBM E-score (8-mer binding enrichment) (E-score (-0.5 to 0.5)); higher = stronger / more preferred TF binding; conditions: protein concentration: 200 nM; construct: GST-DNA-binding domain
Sequence (P50104 whole entry, the tested form may be a part): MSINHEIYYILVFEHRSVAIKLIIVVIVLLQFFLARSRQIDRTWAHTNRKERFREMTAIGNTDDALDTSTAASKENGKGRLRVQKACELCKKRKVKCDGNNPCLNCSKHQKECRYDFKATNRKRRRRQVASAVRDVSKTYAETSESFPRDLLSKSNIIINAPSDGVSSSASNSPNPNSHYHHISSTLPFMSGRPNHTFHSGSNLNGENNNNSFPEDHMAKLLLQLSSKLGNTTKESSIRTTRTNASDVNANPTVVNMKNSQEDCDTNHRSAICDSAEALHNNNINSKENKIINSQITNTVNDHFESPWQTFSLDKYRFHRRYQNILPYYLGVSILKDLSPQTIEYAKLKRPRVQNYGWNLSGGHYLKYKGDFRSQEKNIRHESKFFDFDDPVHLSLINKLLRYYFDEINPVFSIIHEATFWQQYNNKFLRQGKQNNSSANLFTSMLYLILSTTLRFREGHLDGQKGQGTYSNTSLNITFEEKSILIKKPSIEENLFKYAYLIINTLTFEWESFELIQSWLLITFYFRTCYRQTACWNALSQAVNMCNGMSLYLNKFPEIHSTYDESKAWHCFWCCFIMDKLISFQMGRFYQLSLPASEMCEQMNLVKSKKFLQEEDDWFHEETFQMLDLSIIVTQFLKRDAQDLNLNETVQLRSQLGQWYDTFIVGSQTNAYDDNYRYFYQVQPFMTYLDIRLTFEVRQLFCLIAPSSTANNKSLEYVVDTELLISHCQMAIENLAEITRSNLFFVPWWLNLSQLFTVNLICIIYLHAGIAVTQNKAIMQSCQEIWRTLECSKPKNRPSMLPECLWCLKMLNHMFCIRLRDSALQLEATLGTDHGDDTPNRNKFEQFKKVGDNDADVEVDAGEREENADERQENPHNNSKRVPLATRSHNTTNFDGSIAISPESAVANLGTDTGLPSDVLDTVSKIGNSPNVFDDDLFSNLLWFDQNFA
Over roughly 33,000 sequences, “E-score (-0.5 to 0.5)” has its median near -0.056; the highest 2% begin near 0.38. The list comes from a sample in which the highest values are over-represented; it also holds close analogues and randomly drawn sequences.

# count of solved cases: 5
{"Input Sequence": "GCGAACGC", "PBM E-score": -0.0479}
{"Input Sequence": "ATTACCCG", "PBM E-score": 0.416}
{"Input Sequence": "AACGGATA", "PBM E-score": 0.439}
{"Input Sequence": "CACACCCG", "PBM E-score": 0.3}
{"Input Sequence": "GCCGAGAA", "PBM E-score": 0.406}

// each listed sequence needs a value for PBM E-score
1. GACGGATA
2. GACGAGAA
3. CCGAACGA

[0.385, -0.169, 0.379]

----------
target: Stb4 (UniProt P50104); test: PBM E-score (8-mer binding enrichment) (E-score (-0.5 to 0.5)); higher = stronger / more preferred TF binding; details: protein concentration: 200 nM; construct: GST-DNA-binding domain
Whole data set: some 33,000 sequences, median “E-score (-0.5 to 0.5)” near -0.056, cut for the highest 2% near 0.38. Many of the other results were omitted from the sample, so the highest values are more common in it than they were.
For each entry below, report its PBM E-score value.
One number for each entry.

# count of solved cases: 3
{"Input Sequence": "ACCTAAAG", "PBM E-score": -0.0577}
{"Input Sequence": "GTTTAGAA", "PBM E-score": -0.0425}
{"Input Sequence": "GGTCCGAC", "PBM E-score": 0.292}

// each listed sequence needs a value for PBM E-score
1. GATTTTAC
2. ATCGGAGC
3. TAGTGAAA
4. AGATATGA
5. AATCCGAT

[0.0329, 0.282, -0.178, -0.0877, 0.368]

// each listed sequence needs a value for PBM E-score
1. ATGCTCGC
2. GAAATAGC

[-0.239, 0.0755]

// each listed sequence needs a value for PBM E-score
1. GAGTCGCA
2. GCCTCGAA

[-0.21, -0.0521]

----------
target: Stb4 (UniProt P50104); assay: PBM E-score (8-mer binding enrichment) (E-score (-0.5 to 0.5)); higher = stronger / more preferred TF binding; details: protein concentration: 200 nM; construct: GST-DNA-binding domain
Whole data set: some 33,000 sequences, median “E-score (-0.5 to 0.5)” near -0.056, cut for the highest 2% near 0.38. The sample holds the highest values, similar sequences and a random draw of the others, so the mix is not that of the screen.
For each entry below, report its PBM E-score value.
One number for each entry.

# count of solved cases: 4
{"Input Sequence": "ACCGAAAC", "PBM E-score": 0.372}
{"Input Sequence": "ATCTCCGA", "PBM E-score": 0.396}
{"Input Sequence": "CGTCCGAG", "PBM E-score": 0.257}
{"Input Sequence": "ATGGCGTC", "PBM E-score": -0.158}

// each listed sequence needs a value for PBM E-score
1. AATCCGTG
2. GATCCAAC
3. GCCGAAAA
4. AATCCGCG
5. GATCCGCC
6. GACGAAAA
7. CACGAAAG
8. AATCCGCC

0.172
0.104
0.438
0.127
0.273
0.0557
-0.148
0.218

----------
molecular target: Stb4 (UniProt P50104); assay: PBM E-score (8-mer binding enrichment) (E-score (-0.5 to 0.5)); higher = stronger / more preferred TF binding; conditions: protein concentration: 200 nM; construct: GST-DNA-binding domain
Whole data set: some 33,000 sequences, median “E-score (-0.5 to 0.5)” near -0.056, cut for the highest 2% near 0.38. The sample holds the highest values, similar sequences and a random draw of the others, so the mix is not that of the screen.
Yes means recorded PBM E-score is 0.01 or above; No means it is below 0.01.

{"Input Sequence": "GCGCATTA", "System Under Test": "Stb4 (UniProt P50104)", "Label": "No"}
{"Input Sequence": "AGCAACTC", "System Under Test": "Stb4 (UniProt P50104)", "Label": "No"}
{"Input Sequence": "ACGCTTTG", "System Under Test": "Stb4 (UniProt P50104)", "Label": "Yes"}
{"Input Sequence": "GCAAAAAA", "System Under Test": "Stb4 (UniProt P50104)", "Label": "Yes"}
{"Input Sequence": "AATGCCGA", "System Under Test": "Stb4 (UniProt P50104)", "Label": "Yes"}
{"Input Sequence": "ATGTCGGA", "System Under Test": "Stb4 (UniProt P50104)", "Label": "Yes"}
{"Input Sequence": "ACTGCCGA", "System Under Test": "Stb4 (UniProt P50104)", "Label": "Yes"}
{"Input Sequence": "ATGTCGGC", "System Under Test": "Stb4 (UniProt P50104)", "Label": "Yes"}
{"Input Sequence": "AATGCCGT", "System Under Test": "Stb4 (UniProt P50104)", "Label": "Yes"}
{"Input Sequence": "TATGCCCA", "System Under Test": "Stb4 (UniProt P50104)", "Label": "No"}

Does `AGCCAAGA` have a reported PBM E-score of at least 0.01?
No

Ok, now `GATGCCGC`
Yes

Ok, now `TATGCCAA`
No

Ok, now `ATGGTTTA`
Yes

Ok, now `TGAGCTAA`
No

Ok, now `ATACTAAT`
No

----------
target: Stb4 (UniProt P50104); assay: PBM E-score (8-mer binding enrichment) (E-score (-0.5 to 0.5)); higher = stronger / more preferred TF binding; details: protein concentration: 200 nM; construct: GST-DNA-binding domain
The full ranking holds about 33,000 sequences; the median of “E-score (-0.5 to 0.5)” is about -0.056, and the highest 2% start at about 0.38. The list comes from a sample in which the highest values are over-represented; it also holds close analogues and randomly drawn sequences.
fulfilled means recorded PBM E-score is -0.06 or above; not fulfilled means it is below -0.06.

Does `CCTCTCCA` have a reported PBM E-score of at least -0.06?
not fulfilled

Ok, now `ACTCCAAC`
not fulfilled

Ok, now `AATCTACA`
not fulfilled

Ok, now `CGGATCCC`
fulfilled

Ok, now `ATCGGCGA`
fulfilled

Ok, now `AGGATCCG`
fulfilled

Ok, now `GTCGGCGA`
fulfilled

Ok, now `CTCGGCGA`
fulfilled

Ok, now `TAACCGCA`
fulfilled

Ok, now `GGGTCTCA`
fulfilled

Ok, now `AGCTGCAA`
not fulfilled

Ok, now `AAAGGCGA`
not fulfilled

Ok, now `AGCATCCA`
not fulfilled

Ok, now `CGCATCCC`
fulfilled

Ok, now `CGCGAAAG`
not fulfilled

Ok, now `ACGATTGG`
not fulfilled

----------
target: Stb4 (UniProt P50104); experiment: PBM E-score (8-mer binding enrichment) (E-score (-0.5 to 0.5)); higher = stronger / more preferred TF binding; conditions: protein concentration: 200 nM; construct: GST-DNA-binding domain
Whole data set: some 33,000 sequences, median “E-score (-0.5 to 0.5)” near -0.056, cut for the highest 2% near 0.38. This excerpt belongs to a sample that is enriched for the highest values.
met means recorded PBM E-score is 0.3 or above; not met means it is below 0.3.

Illustrative cases are given below, each with its answer.
{"Input Sequence": "TCACGAAA", "System Under Test": "Stb4 (UniProt P50104)", "Label": "not met"}
{"Input Sequence": "CCAGCGCC", "System Under Test": "Stb4 (UniProt P50104)", "Label": "not met"}
{"Input Sequence": "CACCTCGG", "System Under Test": "Stb4 (UniProt P50104)", "Label": "met"}
{"Input Sequence": "AACACCGG", "System Under Test": "Stb4 (UniProt P50104)", "Label": "not met"}
{"Input Sequence": "ACCCGAAG", "System Under Test": "Stb4 (UniProt P50104)", "Label": "met"}
{"Input Sequence": "AACCGAAT", "System Under Test": "Stb4 (UniProt P50104)", "Label": "met"}
{"Input Sequence": "GCCTCGCC", "System Under Test": "Stb4 (UniProt P50104)", "Label": "not met"}
{"Input Sequence": "ACCCGAAT", "System Under Test": "Stb4 (UniProt P50104)", "Label": "met"}

Does `AACCTCGT` have a reported PBM E-score of at least 0.3?
not met

Ok, now `GATTGCTA`
not met

Ok, now `AACCTCGA`
not met

From: the supplement of paper PMC3334620
